tested_target: MdWRKY10 (Malus domestica, UniProt D9ZJE9 1-528)
Sequence (D9ZJE9 entry or part of it): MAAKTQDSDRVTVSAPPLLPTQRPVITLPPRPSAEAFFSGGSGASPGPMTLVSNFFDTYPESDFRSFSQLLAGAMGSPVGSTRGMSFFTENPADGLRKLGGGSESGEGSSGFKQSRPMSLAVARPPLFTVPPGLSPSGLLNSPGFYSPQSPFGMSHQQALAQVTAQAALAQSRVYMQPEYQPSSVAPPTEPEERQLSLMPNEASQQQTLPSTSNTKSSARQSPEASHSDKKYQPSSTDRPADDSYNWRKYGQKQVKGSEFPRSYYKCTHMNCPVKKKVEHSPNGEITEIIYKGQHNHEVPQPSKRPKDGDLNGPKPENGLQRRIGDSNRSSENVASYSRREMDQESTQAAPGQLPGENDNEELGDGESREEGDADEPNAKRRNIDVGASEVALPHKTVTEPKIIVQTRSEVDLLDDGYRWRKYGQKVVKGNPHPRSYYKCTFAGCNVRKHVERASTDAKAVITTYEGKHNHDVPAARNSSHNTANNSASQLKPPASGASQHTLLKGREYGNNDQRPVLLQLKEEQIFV
method: EMSA; EMSA with LightShift chemiluminescent kit (Thermo) per manufacturer; buffer, pH and temperature not stated
condition_summary: protein: recombinant; tags: His (pET-32a(+) vector); label: 3' biotin; blunt
readout_kind: binding result

proMdF3'5'H W2 mutant (dsDNA) DNA 1: TAAATAGTATCTAACGAAAATTTCCCGCACGATATACAATGAACGA DNA 2: TCGTTCATTGTATATCGTGCGGGAAATTTTCGTTAGATACTATTTA: no binding
proMdMYB10 W2 mutant (dsDNA) DNA 1: TGATAAAGGTATCTTATGGTGGGAAAAGATGTGTGTTGTAACTAGT DNA 2: ACTAGTTACAACACACATCTTTTCCCACCATAAGATACCTTTATCA: no binding
proMdMYB10 W2 (dsDNA) DNA 1: TGATAAAGGTATCTTATGGTGGTCAAAGATGTGTGTTGTAACTAGT DNA 2: ACTAGTTACAACACACATCTTTGACCACCATAAGATACCTTTATCA: binds
proMdF3'5'H W3 (dsDNA) DNA 1: TCACTCATATAGGTAAACTTTGTCAAGGATGTTCATGTAATTATAA DNA 2: TTATAATTACATGAACATCCTTGACAAAGTTTACCTATATGAGTGA: binds
